assay: Toxicity (mice); details: mouse, in vivo, po, read-out: Toxicity (mice) LD 50
quantity kind: LD50

Solved cases (4 shown):
- compound: "COCC1CN(c2ccc(CCc3cccc(C#N)c3)cc2)C(=O)O1 (centres unmarked)"
  LD50: "> 1000 mg/kg"
- compound: "COCC1CN(c2ccc(C#Cc3cccc(C#N)c3)cc2)C(=O)O1 (centres unmarked)"
  LD50: "> 1000 mg/kg"
- compound: "COCC1CN(c2ccc(CCc3cccc(Cl)c3)cc2)C(=O)O1 (centres unmarked)"
  LD50: "> 1000 mg/kg"
- compound: "COCC1CN(c2ccc(OCCc3cccc(C#N)c3)cc2)C(=O)O1 (centres unmarked)"
  LD50: "> 1000 mg/kg"

Let us examine a further case.
What LD50 value was documented for this compound, COCC1CN(c2ccc(C#CC3CCCCC3)cc2)C(=O)O1 (centres unmarked) ?
> 1000 mg/kg
